# PROCEDURE_DETAILS: yeast display, Sf9 membrane polyspecificity reagent, FACS + sequencing; frameworks hold sequencing errors
VALUE_TYPE: polyreactivity (PSR sort gate)

Can you look up the measured polyreactivity (PSR sort gate) of QVQLVESGGGLVQAGGSLSLSCAASGSTFVIYAMGWYRQAPGKERELVASIRGRTGSTYNADSVKGRFTISRDNAKNTVYLQMNSLKPEDTAVYYCAAKPGYKSKMDYWGQGTQVSVSS for me?
high polyreactivity

Another sequence: QVQLVESGGGLVQAGGSLRLSCAASGFTFEENAMGWYRPAPGKERELVAAINWSGGNTYYADSVKGRFTISRDNAKNPDSLQMNSLKPEDSAVYYCNAAGAGDDYDYWGQGTQVTVSS
high polyreactivity

* * *

# PROCEDURE_DETAILS: yeast display, Sf9 membrane polyspecificity reagent, FACS + sequencing; frameworks hold sequencing errors
VALUE_TYPE: polyreactivity (PSR sort gate)

Here's what some known entries look like.
Tell me the measured polyreactivity (PSR sort gate) of QVQLVESGGGLVQAGGSLRLSCAASGFTFYQNAMGWYRQAPGKEREFVAAISRRGGSTYYADSVKGRFTISRDNAKNTVYLQMNSLKPEDTAVYYCAADYKRKSDGDYWGQGTQVTVSS , please.
high polyreactivity

Then what about the sequence QVQLVDSGGGLVQAGGSLPLSCAASGSIFDDYAMGWNRKAPGKERELVAAISGGVSTNYADSVKGRFTISRDNAKKTDYLQINSLKPEDTAVYYCNADYARAYIHEYWGQGTQVTVSS ?
low polyreactivity

Ok, now QVQLVESGGGLVQAGGSLRLSCAPSGRTFGYNVMGWYRQAPGKERELVAAISYSGGSTYYADSVKGRFTISRDNAKNTVYLQMNSLKPEDTAVYYCAATVLSWYGDYPVYYWGQGTQVTVSS
low polyreactivity

Field entry: QVQLVESGGGLVQAGGSLRLSCAASGSIGYMGWYRQAPGKERELVAFITSSGGGTYYADSVKGRFTISRDNAKNTVYLQMNSLKPEDTAVYYCATKSSAGYDYWGQGTQVTVSS
low polyreactivity

// same read-out, input: QVQLVESGGALVQAGGSLRLSCAASGFTFFRNAMGWYRQAPGKERELVAAISGSGGSTYYADSVKGRFTISRDNAKNTVYLQMNSLKPEDTAVYYCATYSYPAKVREAYNYWGQGTQVTVSS
low polyreactivity

Others:
Endpoint output: polyreactivity (PSR sort gate) of QVQLVETGGGLVQAGGSLRLSCAASGSIFWSNAMGWYRQAPGKERELVAAITSGGRTYYADSVKGRFTISRDNAKNTVYLQMNSLKPEDTAVYYCAAYWNSATGFDYWGQVTQVTVSS . Value?
high polyreactivity

Then QVQLVESGGGLVQAGGSLRLICAASGLTFSRYAMGWYRQAPGKERELVAAITWSGSSTYYADSVKGRFTISRDKAKNTVYLQMNSLKPEDTAVYYCAARYGYSRGPYYRSDYWGQGTQVTVSS ?
high polyreactivity

* * *

# PROCEDURE_DETAILS: yeast display, Sf9 membrane polyspecificity reagent, FACS + sequencing; frameworks hold sequencing errors
VALUE_TYPE: polyreactivity (PSR sort gate)

Example entries and their recorded answers appear below.
polyreactivity (PSR sort gate) lookup needed for QVQLVESGGGLVQAGGSLRLSCAASGSIFYPNAMGWYRQAPGKERELVADINTSGGDTYYADSVKGRFTISRDNAKNTVYLQMNSLKPEDTAVYYGAAEGYLYQYTSKPSDYWGQGTQVTVSS , thanks.
low polyreactivity

Consider next the sequence QVQLVESGGGLVQAGGSLRLSCAASGFIFYLNAMGWYRQAPGKERELVAAISGRGGRTYYADSVKGRFTISRDNAKNTVYLQMNSLKPEDTAVYYCAAQYVPSRYGYWGQGTQVTVSS in the same way.
high polyreactivity

// repeat for QVQLQESGAGLVQAGGRLRLSCASSGTITVLYKMGWFRQAPGKEREFVASINYGTSTYYADSVKGRFTVSRDSATNHEYLQMISLKPEDTAVYYCAAAYRWQDVYRYWGQGSQVTVSS and report
low polyreactivity

Try QVHLVESGGGIVQAGGSLRLSCAASGSIFKKNAMGWSRQAPGKERELVAAITLSSSDTYYADSVKGRFTISRDNAKNTVYLQMNSLKPEDTAVYYCAAKRTRDMDYWGQGTQVTVSS next.
high polyreactivity

Same lookup for QDQLVESGGGLVQAGGSLRLSCAASGFIIQGNAMGGYRQAPRKERELVAAISSSVSTYYADSVKGRFTISRDNAKNTVYLQMNSLKPEDTAVYYCNSGFPLSLWLGDYWGQGTQVTVSS , please.
low polyreactivity

Now try QVQLVESGGCLVQAGGSHRLSCAASGLTFPKYAMGWYRQAPGKERELVARISYSGASTYYADSVKGRFTISRDNAKNTVYLHMNSLKPEDTAVYYCYARIYRVFYVHFAPYYYWGQGTQVTVSS .
high polyreactivity

// repeat for QVQLVESGGGLVQAGGRLRLSCAASGLTFPPNAMGWYRQAPGKERELVADSGGSTNYADSVKGRFTISRDNAKNTVYLQMNSLKPEDTAVYYCAAPPYSDGQWDDYWGQGTQVTVSS and report
low polyreactivity

QVQLVESGGGLVQAGGSLRLSCAASGFTFWRYALGWYRQAPGKETEFVASITWSGGSTYYADSVKGRFTISRDNAKNTVYLQMNRLQPEDTAVYYCAAVARTSGIKYYYWGQGTQVTVSS ?
high polyreactivity

New cases:
Would you mind telling me what polyreactivity (PSR sort gate) value was observed for QVQLVESGGGLVQAGGSLRLSCAASGITFGSYAMGGYRQAPGKERELVAAITRRGDNTYYADSVKGRFTISRDNAKNTVYLQMNSLKPEDTAVYYCNAAKGGRYPDYDYWGQGTQVTVSS ?
high polyreactivity

And then QVQLVESGGGFVQAGGSLRLSCAACGITFNPNAMGWYRQAPGKERELVAAITANGGNTYYADSVKGRFTISRDNAKNTVYLQMNSLKPEDTAVYYCARRTRRSAGYGEYYYWGQGTQVTVSS , what is it?
high polyreactivity

Also QVQLVESGGGLVQAGGSLRLSCAPSGRILGYYAMGWYRQAPGKERELVAAISSGDSTNYADSVKGRFTISRDNAKYTVYLQMNSLKPEDTAVYYCAAKGWIWNAYNYWGQGTQVTVSS , if possible.
low polyreactivity

* * *

# PROCEDURE_DETAILS: yeast display, Sf9 membrane polyspecificity reagent, FACS + sequencing; frameworks hold sequencing errors
VALUE_TYPE: polyreactivity (PSR sort gate)

GET /values?readout=polyreactivity (PSR sort gate)&item= QVQLVESGGGLVQAGGSLRLSCAASGSIFVGYVMGWYRQAPGKERELVAAISKSGSRTYYADSVKGRFTISRDNAKYTVYLQMNSLKPEDTAVYYCATAGYDADDYWGQGTQVTVSS
high polyreactivity

Repeat for the following sequence: QVQLVESGGGLVQAGGSLRLSCAASGIIFYTYAMGWYRQAPGKEREFVAGIRWSGSSTYYADSVKGRFTISRDNAKNTVYLQMNCLNPEDTAVYYCATGQPYGPLFSMGYGYWGQVTQVTVSS
high polyreactivity

Would you mind doing QVQLVESGGGLVQAGGSLRLSCAASGRIFTYYAMGWYRQAPGKVRELVAAISSGGSTYYADSVKGRFTISRDNAKTTVYLQMNSLTPEDTAVYYCAAEPSYYPYLSPTYGYWGQGTQVTVSS as well?
low polyreactivity

Would you kindly repeat that for QVQLVESGGGLVQAGGSIRLSCAASGYTFVTNAMGWYRPAPGKERELVAAITTVGSTNYADSGKGRFTISRDNAKNTVYLQMNSLKPEDTAVYYCNANWYEWYGWGQGTQVTVSS ?
low polyreactivity

Please turn your attention to the following entry.
Which polyreactivity (PSR sort gate) value is on record for QVQLVESGGGLVQAGGSLRLSCAASGRIFAYNAMGWYRQAPGKERELVAAISSSDDDTYYADSVKGRFTISRDNAKNTVYLQMNSLKPEDTAAYYCAAEWDTDRLWAGPRGSLYDYWGQGTQVTVSS ?
high polyreactivity

* * *

# PROCEDURE_DETAILS: yeast display, Sf9 membrane polyspecificity reagent, FACS + sequencing; frameworks hold sequencing errors
VALUE_TYPE: polyreactivity (PSR sort gate)

Examples from the recorded data:
Find the recorded polyreactivity (PSR sort gate) belonging to QVHLVESGGVLVQAGGSLRLSCAASGSIFDDYAMGWYRQAPGKERELVAAISSSGTSTYYADSVKGRFTISRDTANNTVYLQMNSLKPEDTAVYYCAARSAILDYWGQGTQVTVSS and report it.
low polyreactivity

What do you get for QVQLVESGGGLVQAGGSLRLRCAASGSIFVYNARGWYRPAPGKERELVPAISKSGGRTYYADSVKGRFTISRDNAKNTVYCQMHSLKPEDTAVYYCNALAGQRQGWEYDYWGQGTQVTVSS ?
high polyreactivity

What would you report for QVQLVESGGGLVQAGGSLRLSCAASGSTFSTNVMGWYRQAPGKERELVAAISTIGGSTYADSVKGRFTISRDNAKNTVYLQMNSLKPEDTAVYYCAAVFRVRRKTYGYWGQGTQVTVSS ?
high polyreactivity

Request: QVQLVESGGALVQEGRSLRLSCAASGGTFADYPMGWYRQAPVKERELVAAITNGGSTFYADSVKGRFTSSRDNATNTVYLQMNSLKPDDTAVYYWSAVYLYAYSPYFSAVEMYYWGQGSQVTVSS
low polyreactivity

Continuing:
So what's the measured polyreactivity (PSR sort gate) for this one? QDQLVESGGGLVQAGGSLRLSCAASGSTLYAYAMGWYRQAPGKERELVAASRTGGSTYYADSLKGRFTISRDNAKNTVYLQMNSLKPEDTAVYYCAALYYHEYDYWGQGTQVTVSS
low polyreactivity

Please do the same for QVQLVESGGGLVQAGGSLRISCAASGFIFKVYAMGWYRQAPGKERELVAAITSSGGSTYYADSVKGRFTISRDNAKNTVYLQMNSLIPEDTAVYYCAAQFPGVYYYIYDYWGQGTQVTVSS as well.
high polyreactivity

Another sequence to look at: QVQLVESGGGLDQAGGSLRLSCAGSGSIFTSYAMGWDIQAPGKERELVAAISQSGGDTYYADSVKGRFTISRDNAKNTVYLQMNSLKPEDTAVYYCAASVWYYPMDYWGQGTQVTVSS
low polyreactivity

Request: QVQLVESGGGLVQAGGSLRLSCAASGGIFSRYAMGWYRQAPGKEREFVAAISFSGASTYYADSVKGRFTISRDNAKNTVYLQMNSLKPEDTAVYYCAAYWDAEGRRYTRLDYWGQGTQVTVSS
low polyreactivity

Entry to check: QVQIVESGGGLVQAGGSLRLSCAASGSIFVQNAMGWYRQAPGKERELVAVINSGDSTNYADSVKGRFTISRDNAKNTVYLQMNSLKPEDTAVYYCAVDDVSYYYLRAYNYELSWYGSGLDYWGQGTQVTVSS
low polyreactivity

# repeat for QVQLVESGGGLVQAGGSLRLSCAASGITFNRYSMGWYRQAPGKERELVARISLRGGNTYYADSVKGRFTISRDNAKNTVYLQMNSLKPEDPAVYYCNADLYRQYASRYHYWGQGTQVTVSS
high polyreactivity

Thanks! And QVQLVESGGGLVQAGGSLRLSCPASGRIFYYNAIGWYRQAPGKERELVATITRAGGTYYADSVKGRFTISRDNAKNTVYLQMNSLKPEDTAVYYCAKRHPIVDDYKGDYWGQGTQVTVSS ?
low polyreactivity

Same thing, different sequence: QVQLVESGGGLVQAGGSLRLSCAASGRTFDWYVMGWYRQAPGKERELVATITRDGSTNYADSVKGRFTISRDNAKNTVYLQMNSLKPEDTAVYYCAATVPPLVGYDYWGQGTQVTVSS
low polyreactivity

Same lookup for QVQLVESGGGLVQAGGSLRLSCAASGGTFDVYTMGWYRQAPGKERELVAAIDNGGSTNYADSVKGRFTISRDNAKNTVYLQMNSLQPEDTAVYYCAADEVYLFWGIAEFIYDYWGQGTQVTVSS , please.
low polyreactivity

And what about the sequence LVQLVESGGGLVQAGGSLRLICAASGITISYNAMGWYRQAPGKERELVAAITGSDGITYYADSVKGRFTISRDNAKNTVYLEMNSLKPEDTAVYYCAAEWWDYWYEYDYWGQGTQVTVSS ?
high polyreactivity

Again, but for QVHLVQSGGGLVQAGGSLRLSCAASGSILYFYAKGWYRQAPGKERELVAAISWTGGSTYYADSVKGRFTISRDNAKNTVYLQMNSLKPEDTAVYYCAAELWYEGYDYWGQGTQVTVSS
high polyreactivity

And for QVQLVESGGGLVLAGGSLRLSCADSGLILRLNAMGWYRQAPGKDRELVATINRGGSTNYADSVKGRFTISRDNAKNTVFLQMNSLNPEDTAVDYCNKARTSQYHHTYWRTYGYWGQGTQVTVSS ?
low polyreactivity

What do you get for QVQLVETGGGLVQAGGSLRLSCPASGRIFEDNAMGWYRQEPGKERELVAAIDFSGGDTYYADSVKGRFTISRDNAKNTVYLQMNSLKPEDTAVYYCAAGRSGWGYDSWGQGTQVTVSS ?
low polyreactivity

Next entry: QVQLVESGGGLVQAGGSLRLSCAASGRTFLVNAMGWYRQAPGKEREYVAAINFSVGTTTYADSVKGRFTISRDNAKNTVYLQMNSLKPEDTAVYYCNTYGRYWYIREDYWGQGTQVTVSS
high polyreactivity
